Test: Cycloheximide Counterscreen for Small Molecule Inhibitors of Shiga Toxin
Details: cell reporter, cycloheximide protein synthesis inhibition counterscreen
Screen size: about 300,000 compounds; about 37,000 (12%) were called active. No stated cut-off is given here; in the data, active means max response mostly above about 13% (no sharp cut-off); inactive means mostly below about 14%. The full list was thinned out, with actives kept by preference.
Result category, one only: y (active), n (inactive)

Answered cases to consult:
| MOLECULE | QUALITATIVE_LABEL |
| --- | --- |
| COc1ccc(C2(CNC(=O)C(c3ccccc3)c3ccccc3)CCOCC2)cc1OC | n |
| O=C1CCCCN1CCCC(=O)N1CCCC(Nc2ccc(F)cc2)C1 (stereo not given) | n |
| CN(C)c1ccc(-n2cccc2/C=N/n2cnnc2)cc1 | y |
| O=C(CN1C(=O)CSC1=O)N1CCCC(Nc2ccc(F)cc2)C1 (stereo not given) | n |
| O=C(NCCc1ccccc1)c1ccc2c(c1)N(Cc1ccccc1)CCS2 | y |

Prompt: State the result this test recorded for `N#C/C(=C\c1ccc(-c2cccc([N+](=O)[O-])c2)o1)C(=O)NCCN1CCOCC1` .
Response: n

Prompt: State the result this test recorded for `CC(=O)Cc1nsc(NC(=O)c2ccc(COc3ccc(C)cc3)o2)n1` .
Response: n

Prompt: State the result this test recorded for `Cc1cccc(NC(=O)c2ccc(COc3ccccc3[N+](=O)[O-])o2)n1` .
Response: n

Prompt: State the result this test recorded for `CC(C)CCn1cnc2c1c(=O)n(CC(=O)NC(N)=O)c(=O)n2Cc1ccccc1` .
Response: n

Prompt: State the result this test recorded for `COc1ccc(S(=O)(=O)N2CCC(C(=O)N3CCCC3)CC2)cc1C` .
Response: n

###

Experiment: Cycloheximide Counterscreen for Small Molecule Inhibitors of Shiga Toxin
Details: cell reporter, cycloheximide protein synthesis inhibition counterscreen
Screen size: about 300,000 compounds; about 37,000 (12%) were called active. Rule as the data show it: active = max response mostly above about 13% (no sharp cut-off); inactive = mostly below about 14%. The sample holds actives, similar compounds and a random draw of the others, so the mix is not that of the screen.
Result category, one only: active, inactive

Answered cases to consult:
| SUBSTANCE_SMILES | QUALITATIVE_LABEL |
| --- | --- |
| Nc1c(C(=O)c2cccs2)sc2nsc(SCCN3CCCCC3)c12 | active |
| S=c1[nH]ccn1-c1ccc(Cl)cc1 | inactive |
| CSc1nc2ccc(NC(=O)c3c(F)cccc3F)cc2s1 | active |
| COC(=O)c1scc(C)c1NC(=O)CSc1ccc(Cl)cc1 | inactive |
| COc1ccccc1N1CCN(C(=O)c2ccc(Cl)c(S(=O)(=O)N3CCCC3)c2)CC1 | inactive |
| OCCNCCOc1ccc(Cl)c(Cl)c1 | inactive |

Prompt: State the result this test recorded for `O=C(Nc1ccccc1F)c1ccc(Cn2cc(Br)cn2)cc1` .
Response: active

###

Experiment: Cycloheximide Counterscreen for Small Molecule Inhibitors of Shiga Toxin
Conditions: cell reporter, cycloheximide protein synthesis inhibition counterscreen
About 37,000 (12%) of roughly 300,000 compounds were called active. Cut-off read from the data, not from the text of the source: active = max response mostly above about 13% (no sharp cut-off); inactive = mostly below about 14%. This is one part of a sample in which actives are shown more often than they occur.
Result category, one only: t = active, f = inactive

Prompt: State the result this test recorded for CC1=C(C(=O)Nc2ccccc2)C(c2cccs2)C(C#N)=C(SCC#N)N1 (stereo unspecified) .
Response: f

Prompt: State the result this test recorded for Cc1ccc(S(=O)(=O)CC(=O)NC(C)c2ccccc2)cc1 (stereo unspecified) .
Response: f

Prompt: State the result this test recorded for `CCCc1nc(NCc2ccc3c(c2)OCO3)c2nnn(Cc3ccccc3Cl)c2n1` .
Response: f

Prompt: State the result this test recorded for CC1CCC(C(C)C)C(=O)/C1=C\c1ccc(NC(=O)CCC(=O)O)cc1 (stereo unspecified) .
Response: f

Prompt: State the result this test recorded for `Cc1ccc(-c2csc(N(Cc3ccco3)C(=O)c3cccs3)n2)cc1` .
Response: t

Prompt: State the result this test recorded for `Cc1ccc(-c2csc(NC(=O)c3cccs3)n2)cc1` .
Response: t

Prompt: State the result this test recorded for `O=C(O)CCC(=O)N(Cc1ccco1)c1nc(-c2ccccc2)cs1` .
Response: f

Prompt: State the result this test recorded for `C(=N/N1CCN(c2ccccc2)CC1)/c1cccs1` .
Response: t

Prompt: State the result this test recorded for `O=C(Nc1n[nH]c(C(F)(F)F)n1)c1cccs1` .
Response: f

Prompt: State the result this test recorded for `Cc1nc(Nc2ccc3c(c2)OCCO3)c2nnn(Cc3ccccc3Cl)c2n1` .
Response: t

Prompt: State the result this test recorded for `Cc1nnc(N(Cc2ccco2)C(=O)c2ccno2)s1` .
Response: f

###

Each entry below lists one item and its recorded max response value.
Experiment: Cycloheximide Counterscreen for Small Molecule Inhibitors of Shiga Toxin; further: read at 38.3 µM for the half of the compounds with a filed dose; 0% is about no effect
Conditions: cell reporter, cycloheximide protein synthesis inhibition counterscreen; hits give high values
About 37,000 (12%) of roughly 300,000 compounds were called active. This excerpt belongs to a sample that is enriched for actives.
Please reply with the bare figure in % and do not write the unit itself.

Worked cases, max response given:
| COMPOUND | UNITS | READOUT_NUMBER |
| --- | --- | --- |
| CCOC(=O)c1c(NC(=O)/C=C/c2ccco2)sc(C)c1C | % | -2.54 |
| CCc1nnc(NC(=O)/C=C/c2ccc(C)o2)s1 | % | 21.2 |

Prompt: Quickly give me recorded max response for `CCc1nnc(NC(=O)CCC(=O)O)s1`
Response: -1.47

Prompt: Quickly give me recorded max response for Cc1c(S(=O)(=O)NC(C)c2ccccc2)c(=O)n(C)c(=O)n1C (stereo unspecified)
Response: 1.11

Prompt: Quickly give me recorded max response for `Cc1cccn2c(=O)c(C=O)c(Nc3ccc(S(N)(=O)=O)cc3)nc12`
Response: -2.14

Prompt: Quickly give me recorded max response for `COc1ccc(C)cc1S(=O)(=O)N1CCN(S(=O)(=O)c2cc(C(=O)O)ccc2C)CC1`
Response: 1.26

Prompt: Quickly give me recorded max response for `CCC(CC)c1nnc(NC(=O)/C=C/c2ccco2)s1`
Response: 17.5

Prompt: Quickly give me recorded max response for `Cc1ccc(/C=C/C(=O)Nc2ccc([N+](=O)[O-])c(NC(=O)/C=C/c3ccc(C)o3)c2)o1`
Response: -2.46

Prompt: Quickly give me recorded max response for Cc1cc(O)c(C2(O)C(=O)Nc3ccccc32)cc1C (stereo unspecified)
Response: -3.78

Prompt: Quickly give me recorded max response for `COc1ccc(NC(=O)CSc2nc(C)cs2)cc1`
Response: 27.7

Prompt: Quickly give me recorded max response for `COc1ccc(C2=NN(c3nc4ccccc4s3)C(=O)C2)cc1`
Response: 25.8

###

Assay: Cycloheximide Counterscreen for Small Molecule Inhibitors of Shiga Toxin; further: read at 38.3 µM for the half of the compounds with a filed dose; 0% is about no effect
Settings: cell reporter, cycloheximide protein synthesis inhibition counterscreen
The whole screen tested about 300,000 compounds, of which about 37,000 (12%) were called active. No stated cut-off is given here; in the data, active means max response mostly above about 13% (no sharp cut-off); inactive means mostly below about 14%. The list comes from a sample in which actives are over-represented; it also holds close analogues and randomly drawn compounds.
Result category, one only: 1.0 for active, 0.0 for inactive

Answered cases to consult:
| SUBSTANCE_SMILES | QUALITATIVE_LABEL |
| --- | --- |
| COC(=O)c1ccc(NC(=O)c2ccco2)cc1 | 1.0 |
| Cc1ccc(-c2noc(CSc3nnc(-c4ccccc4)n3C)n2)cc1 | 0.0 |
| O=C(Nc1ccncc1)c1ccc(Cl)c([N+](=O)[O-])c1 | 0.0 |
| O=C(Nc1cccnc1)c1ccc(Cl)c([N+](=O)[O-])c1 | 0.0 |
| Cc1ccnc(NC(=O)c2ccc(Cl)c([N+](=O)[O-])c2)c1 | 1.0 |

Prompt: State the result this test recorded for `Cc1ccc(-c2noc(CSc3nnc(-c4cccs4)n3C)n2)cc1` .
Response: 0.0

###

Experiment: Cycloheximide Counterscreen for Small Molecule Inhibitors of Shiga Toxin; further: read at 38.3 µM for the half of the compounds with a filed dose; 0% is about no effect
Settings: cell reporter, cycloheximide protein synthesis inhibition counterscreen; hits give high values
The whole screen tested about 300,000 compounds, of which about 37,000 (12%) were called active. The list comes from a sample in which actives are over-represented; it also holds close analogues and randomly drawn compounds.
ENDPOINT_LABEL: max response (%)
Please reply with the bare figure in % and do not write the unit itself.

Prompt: Quickly give me recorded max response for `Cc1ccc(C(=O)NNC(=O)OC(C)(C)C)c(Cl)c1`
Response: 23.3

Prompt: Quickly give me recorded max response for `CC(C)CC[n+]1ccn(C2=C([O-])c3ccccc3C(=O)/C2=N\S(=O)(=O)c2ccccc2)c1`
Response: -1.98

###

Assay: Cycloheximide Counterscreen for Small Molecule Inhibitors of Shiga Toxin; further: read at 38.3 µM for the half of the compounds with a filed dose; 0% is about no effect
Settings: cell reporter, cycloheximide protein synthesis inhibition counterscreen
Screen size: about 300,000 compounds; about 37,000 (12%) were called active. Cut-off read from the data, not from the text of the source: active = max response mostly above about 13% (no sharp cut-off); inactive = mostly below about 14%. Only a selection was taken, and actives are over-represented in it overall.
Result category, one only: active, inactive

Answered cases to consult:
| MOLECULE | QUALITATIVE_LABEL |
| --- | --- |
| Cc1cc(Cl)ccc1OCCCC(=O)Nc1cccc(-n2cnnn2)c1 | inactive |
| CC(C)(C)C1CCC(=NNC(=O)c2ccc(Br)o2)CC1 (configuration not stated) | active |
| Cc1cccc(NC(=O)c2nc(S(=O)(=O)Cc3ccccc3)ncc2Cl)c1 | active |

Prompt: State the result this test recorded for CCOC(=O)C(NS(=O)(=O)c1ccc(C)cc1)(C(F)(F)F)P(=O)(OCC(C)C)OCC(C)C (configuration not stated) .
Response: inactive

Prompt: State the result this test recorded for `CCN(CC)S(=O)(=O)c1ccc(NC(=O)c2cnc(C)cn2)cc1` .
Response: inactive

Prompt: State the result this test recorded for `C/C=C(\C)C(=O)NCCN1C2=NC[C@H](Cc3ccc(O)cc3)N2C[C@@H]1Cc1ccc(OC)cc1` .
Response: inactive

Prompt: State the result this test recorded for `CCC(CC)NC(=O)/C=C/c1cccc([N+](=O)[O-])c1` .
Response: inactive

Prompt: State the result this test recorded for CCn1cc(CN2CCN(CC(C)(C)C)C(CCO)C2)c2ccccc21 (configuration not stated) .
Response: inactive

Prompt: State the result this test recorded for `COc1ccc(CCNC(=O)CCNS(=O)(=O)c2cc(Br)cnc2N)cc1OC` .
Response: inactive

Prompt: State the result this test recorded for `CCOc1ccc(NC(=O)c2nc(SCC)ncc2Cl)cc1` .
Response: inactive

Prompt: State the result this test recorded for `Cc1ccc(NC(=O)CNCc2ccccn2)cc1S(=O)(=O)N(C)C` .
Response: inactive

Prompt: State the result this test recorded for `Cc1cccc(COc2ccccc2/C=N/Nc2ccc([N+](=O)[O-])cc2)c1` .
Response: inactive

Prompt: State the result this test recorded for `Cc1ccc(NC(=O)C(=O)NCC2CCN(C(=O)c3cccc([N+](=O)[O-])c3)CC2)cc1` .
Response: inactive

Prompt: State the result this test recorded for `O=[N+]([O-])c1ccc(N/N=C/c2ccccc2)cc1` .
Response: active

Prompt: State the result this test recorded for `CCSc1ncc(Cl)c(C(=O)Nc2cc(C)ccc2C)n1` .
Response: inactive

Prompt: State the result this test recorded for `Cc1ccnc(Nc2nc3ccccc3s2)n1` .
Response: active

Prompt: State the result this test recorded for COCc1c(C(=O)N/N=C/C2CC=CCC2)nnn1-c1nonc1N (configuration not stated) .
Response: inactive

Prompt: State the result this test recorded for `CCOC(=O)C1CCN(S(=O)(=O)c2c(C)noc2C)CC1` .
Response: inactive
